Test: refractive index (Na D-line) (dimensionless)
Conditions: 293.15 K; 101.33 kPa; Liquid; Standard Abbe refractometry
Reported Property: refractive index
Answer with a number only.

Item: CC(C)CC(=O)CC(C)C | refractive index: 1.4155

Item: CC(=O)CCC(C)C | refractive index: 1.4074

Item: CCC(=O)O | refractive index: 1.3811

Item: CCC(=O)CCC(C)C | refractive index: 1.4194

---

# Lookup of reported mass density keyed by entry
Conditions: 293.15 K; 101.33 kPa; Liquid
Write the value in kg/m3 as a bare number.

Molecule: CCC(=O)CCC(C)C [6-methyl-3-heptanone]
Reading Unit: kg/m3
mass density: 822.7

Item: CC(=O)CCC(C)C [5-methyl-2-hexanone] | mass density: 887.5

Item: CCC(=O)O [propanoic acid] | mass density: 992.7

Item: CC(C)CC(=O)CC(C)C [2,6-dimethyl-4-heptanone] | mass density: 804.8
